Molecular target: Nuclear receptor ROR-beta (Homo sapiens, UniProt Q92753)
Sequence (Q92753 whole entry): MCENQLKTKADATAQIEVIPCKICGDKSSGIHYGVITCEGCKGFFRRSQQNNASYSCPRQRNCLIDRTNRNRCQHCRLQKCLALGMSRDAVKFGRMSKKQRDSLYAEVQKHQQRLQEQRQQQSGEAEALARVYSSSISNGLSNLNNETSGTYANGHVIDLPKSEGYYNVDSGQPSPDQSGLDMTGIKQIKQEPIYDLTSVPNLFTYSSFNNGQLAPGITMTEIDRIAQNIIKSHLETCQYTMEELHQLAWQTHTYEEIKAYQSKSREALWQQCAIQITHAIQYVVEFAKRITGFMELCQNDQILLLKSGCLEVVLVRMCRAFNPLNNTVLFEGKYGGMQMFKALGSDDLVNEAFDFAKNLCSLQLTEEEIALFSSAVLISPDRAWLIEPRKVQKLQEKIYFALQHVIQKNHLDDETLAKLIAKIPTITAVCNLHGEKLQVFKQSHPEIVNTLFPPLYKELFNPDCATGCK
Assay: Inverse agonist activity at human ROR-beta expressed in HEK293 cells after 16 hrs by luciferase reporter gene assay
Type: cell-based
Conditions: read-out: IC50
pIC50: −log10 of the molar value.
reported_property: pIC50

Take a look at these entries with their results.
Request body: readout pIC50, system Nuclear receptor ROR-beta (Homo sapiens, UniProt Q92753), query `Cn1c(=O)c2ccccc2c2cc(C(O)(C(F)(F)F)C(F)(F)F)ccc21` . Return the value.
< 4.70

Look up pIC50 with Nuclear receptor ROR-beta (Homo sapiens, UniProt Q92753) for this molecule: `O=c1[nH]c2ccc(C(O)(C(F)(F)F)C(F)(F)F)cc2c2ccccc12`
< 4.70

Now take the following molecule into account.
Write down the reported pIC50 of `CCCCCCCCCn1c(=O)c2ccccc2c2cc(C(O)(C(F)(F)F)C(F)(F)F)ccc21` , test system: Nuclear receptor ROR-beta (Homo sapiens, UniProt Q92753).
< 4.70
